Assay: Oral bioavailability and tissue distribution
Format: in vivo, mouse
Conditions: male, mouse, plasma, oral; 10 mg/kg p.o., 20 min, C57BL6/J; read-out: plasma level
Measured endpoint: concentration at 20 min (nM)
Your answer should be a plain number; it is taken to be in nM.

Req: Look up and state reported concentration at 20 min for `CCCCCCC/C=C/C=C/C(=O)NCCc1ccc(OC)c(OC)c1`
Resp: 47.3

====

Test system: 2-AG uptake in U937 cells
Test: 2-AG uptake inhibition in U937 cells
Format: cell-based
Conditions: Homo sapiens, U-937, 1 μM total 2-AG
Measured endpoint: IC50 (nM)
Unit nM implied. Number only.

Req: Please list IC50 recorded for the molecule `CCCCCCC/C=C/C=C/C(=O)NCCc1ccc(OC)c(OC)c1`
Resp: 283
